Sourced from patent US12590062B2

# system: PD-L1 (Homo sapiens, UniProt Q9NZQ7)
# Construct: determine if they can specifically dimerize the extracellular domains of PD-L1
# Sequence (Q9NZQ7 19-238 limits assumed): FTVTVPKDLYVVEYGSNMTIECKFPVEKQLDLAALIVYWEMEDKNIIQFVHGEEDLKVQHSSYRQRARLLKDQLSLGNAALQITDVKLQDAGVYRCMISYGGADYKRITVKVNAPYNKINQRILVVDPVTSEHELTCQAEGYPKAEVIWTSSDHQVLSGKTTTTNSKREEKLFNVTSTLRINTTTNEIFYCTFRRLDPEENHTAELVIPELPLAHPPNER
# Sequence (Q9NZQ7 19-238 limits assumed): as above
# protocol: PD-L1/PD-L1 dimerization biochemical protein-protein interaction assay (ALPHA)
# Assay type: binding
# protocol conditions: compound-induced PD-L1 dimerization, head prints '1 nM' (0.5 nM His-tagged PD-L1 and 0.5 nM FLAG-tagged PD-L1), read-out: AC50 PDL1 Dimer Alpha 1 nM
readout label: AC50
Form field: result (number plus unit)

structure	system	AC50
COc1nc(-c2cccc(-c3cccc4c3CC[C@@H]4Oc3nc(OCc4cncc(C#N)c4)c(CN[C@@](C)(CO)C(=O)O)cc3Cl)c2Cl)ccc1CN1CC2(C1)CN(C(=O)OC(C)(C)C)C2	PD-L1 (Homo sapiens, UniProt Q9NZQ7)	194 nM
OCCNCc1cc(Cl)c2nc(-c3cccc(-c4cccc(-c5nc6c(Cl)cc(CNCCO)cn6n5)c4Cl)c3Cl)nn2c1	PD-L1 (Homo sapiens, UniProt Q9NZQ7)	340 nM
C[C@@](CO)(NCc1cc(Cl)c(O[C@H]2CCc3c(-c4cccc(-c5ccc(OCCNCCO)cc5)c4Cl)cccc32)nc1OCc1cc(C#N)cc(C#N)c1)C(=O)O	PD-L1 (Homo sapiens, UniProt Q9NZQ7)	18.7 nM
Cc1c(COc2cc(OCc3cncc(C#N)c3)c(CNC(CO)(CO)CO)cc2Cl)cccc1-c1cccc(COc2cc(OCc3cncc(C#N)c3)c(CNC(CO)(CO)CO)cc2Cl)c1C	PD-L1 (Homo sapiens, UniProt Q9NZQ7)	327 nM

As a next step, examine the molecule that follows.
Prompt: State the recorded AC50 for this entry: CS(=O)(=O)c1cncc(COc2nc(O[C@H]3CCc4c(-c5cccc(-c6ccc(CN)cc6)c5Cl)cccc43)c(Cl)cc2CNC[C@@H](O)CC(=O)O)c1
Response: 22.1 nM

----------
Below, each of the compounds is paired with its reported EC50 value.
# system: PD-1/PD-L1 interaction (Homo sapiens)
# Construct: expressed in transfected cells; host or cells: CHO cells (aAPC-PD-L1) co-cultured with Jurkat cells overexpressing PD-1 and an NFAT-luciferase reporter
# Sequence (Q9NZQ7 19-290): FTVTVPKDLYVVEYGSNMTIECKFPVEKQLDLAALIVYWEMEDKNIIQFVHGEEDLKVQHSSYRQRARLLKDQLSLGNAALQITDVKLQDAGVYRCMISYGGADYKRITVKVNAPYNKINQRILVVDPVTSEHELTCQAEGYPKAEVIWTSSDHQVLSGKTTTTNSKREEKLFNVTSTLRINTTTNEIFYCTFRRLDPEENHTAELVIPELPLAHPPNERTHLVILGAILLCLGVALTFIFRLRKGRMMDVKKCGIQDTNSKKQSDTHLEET
# protocol: PD-1/PD-L1 NFAT reporter co-culture assay
# Type: cell-based
# protocol conditions: Jurkat PD-1 NFAT-luciferase cells co-cultured with aAPC-PD-L1 CHO cells, 6 hrs at 37° C.; read-out: EC50 NFAT Luciferase
Value expressed in nM; do not type the unit.

compound	result units	EC50
Cc1c(COc2cc(OCc3cncc(C#N)c3)c(CNC(C)(CO)C(=O)O)cc2Cl)cccc1-c1cccc(-c2ccc(CN3CCC4(CNC(=O)C4)C3)cc2)c1C (centres unmarked)	nM	296
COc1nc(OCc2cccc(-c3cccc(COc4nc(OC)c(CNC[C@@H](O)CC(=O)O)cc4C#N)c3C)c2C)c(C#N)cc1CNC[C@@H](O)CC(=O)O	nM	393
COc1ccc2cc(-c3cccc(-c4cccc(COc5cc(OCc6cncc(C#N)c6)c(CNC[C@@H](O)CC(=O)O)cc5Cl)c4C)c3C)ccc2c1CNC[C@@H](O)CC(=O)O	nM	183
Cc1c(-c2ccc(CN3CC[C@@H](O)C3)cc2)cccc1-c1cccc(-c2ccc(CNC[C@@H](O)CC(=O)O)c(OC(F)(F)F)c2)c1C	nM	2580
Cc1c(COc2cc(OCc3cncc(C#N)c3)c(CN[C@@H]3CCC[C@@H]3O)cc2Cl)cccc1-c1cccc(-c2ccc3c(c2)CCC3N2CC[C@H](CC(=O)O)C2)c1C (some centres unmarked)	nM	149

Prompt: State the recorded EC50 for this entry: CS(=O)(=O)c1cncc(COc2nc(OCc3cccc(-c4cccc(-c5ccc(OCCNCCO)cc5)c4Cl)c3Cl)c(Cl)cc2CN2C[C@@H](O)C[C@H]2C(=O)O)c1
Response: 289

Prompt: State the recorded EC50 for this entry: Cc1c(COc2nc(OCc3cc(C#N)cc(C#N)c3)c(CN[C@@H](CO)C(=O)O)cc2Cl)cccc1-c1cccc(COc2nc(OCc3cc(C#N)cc(C#N)c3)c(CN[C@@H](CO)C(=O)O)cc2Cl)c1C
Response: 74

Prompt: State the recorded EC50 for this entry: N#Cc1cncc(COc2nc(O[C@H]3CCc4c(-c5cccc(-c6nc7ccc(CNC[C@@H](O)CC(=O)O)cn7n6)c5Cl)cccc43)c(Cl)cc2CNC[C@@H](O)CC(=O)O)c1
Response: 49
